target: human M4 receptor (Homo sapiens (Human), UniProt P08173); test: Radioligand (tritiated N-methylscopolamine) binding assay, M4; settings: Ki against the M4 receptor; membranes from CHO cells expressing human M4; tritiated N-methylscopolamine 1.5 nM; read-out: Ki
Sequence (P08173 whole entry): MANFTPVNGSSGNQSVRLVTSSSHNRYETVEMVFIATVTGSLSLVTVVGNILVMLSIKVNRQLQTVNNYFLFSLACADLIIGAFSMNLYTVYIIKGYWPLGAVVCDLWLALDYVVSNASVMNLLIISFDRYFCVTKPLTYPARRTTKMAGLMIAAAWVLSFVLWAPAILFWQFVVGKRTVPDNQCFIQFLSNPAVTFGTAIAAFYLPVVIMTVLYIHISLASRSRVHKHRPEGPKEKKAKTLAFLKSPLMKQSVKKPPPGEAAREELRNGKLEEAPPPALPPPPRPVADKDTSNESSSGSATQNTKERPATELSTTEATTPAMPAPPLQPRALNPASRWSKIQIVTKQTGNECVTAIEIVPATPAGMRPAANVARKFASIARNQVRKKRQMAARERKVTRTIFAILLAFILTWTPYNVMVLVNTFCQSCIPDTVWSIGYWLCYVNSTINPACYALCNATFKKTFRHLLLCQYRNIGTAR
REPORTED ENDPOINT: Ki

INPUT: Hello, please tell me recorded Ki for this one: O=C(NCCC1CCN(Cc2cccc(O)c2)CC1)c1ccc(Oc2ccccc2)cc1
OUTPUT: 100 to 1000 nM

INPUT: Hello, please tell me recorded Ki for this one: C[C@@H]1CN(c2ncc(C#N)cc2F)C[C@H](C)N1C(=O)NCCC1CCN(Cc2ccccc2)CC1
OUTPUT: 10 to 100 nM

INPUT: Hello, please tell me recorded Ki for this one: C[C@@H]1CN(c2ncc(C#N)cn2)C[C@H](C)N1C(=O)NCCC1CCN(C2Cc3ccccc3C2)CC1
OUTPUT: 10 to 100 nM

INPUT: Hello, please tell me recorded Ki for this one: COc1ccccc1C1CCN(C(=O)NCCC2CCN(Cc3ccccc3)CC2)CC1
OUTPUT: 100 to 1000 nM

INPUT: Hello, please tell me recorded Ki for this one: O=C(NCCC1CCN(Cc2cccc3c2OCCO3)CC1)c1ccc(OCc2ccccc2)cc1
OUTPUT: 10 to 100 nM

INPUT: Hello, please tell me recorded Ki for this one: COc1ccc(N2CCC(C(=O)NCCC3CCN(Cc4ccccc4)CC3)CC2)cc1OC(F)(F)F
OUTPUT: 10 to 100 nM

INPUT: Hello, please tell me recorded Ki for this one: O=C(NCCC1CCN(Cc2ccccc2)CC1)C1(O)CCN(c2ccc(OC(F)(F)F)c(F)c2)CC1
OUTPUT: 10 to 100 nM

INPUT: Hello, please tell me recorded Ki for this one: C[C@@H]1CN(c2nc(Cl)cc(C#N)n2)CCN1C(=O)NCCC1CCN(Cc2ccccc2)CC1
OUTPUT: < 10 nM

* * *

biological target: human M5 receptor (Homo sapiens (Human)); assay: Radioligand (tritiated N-methylscopolamine) binding assay, M5
Sequence (P08912 whole entry): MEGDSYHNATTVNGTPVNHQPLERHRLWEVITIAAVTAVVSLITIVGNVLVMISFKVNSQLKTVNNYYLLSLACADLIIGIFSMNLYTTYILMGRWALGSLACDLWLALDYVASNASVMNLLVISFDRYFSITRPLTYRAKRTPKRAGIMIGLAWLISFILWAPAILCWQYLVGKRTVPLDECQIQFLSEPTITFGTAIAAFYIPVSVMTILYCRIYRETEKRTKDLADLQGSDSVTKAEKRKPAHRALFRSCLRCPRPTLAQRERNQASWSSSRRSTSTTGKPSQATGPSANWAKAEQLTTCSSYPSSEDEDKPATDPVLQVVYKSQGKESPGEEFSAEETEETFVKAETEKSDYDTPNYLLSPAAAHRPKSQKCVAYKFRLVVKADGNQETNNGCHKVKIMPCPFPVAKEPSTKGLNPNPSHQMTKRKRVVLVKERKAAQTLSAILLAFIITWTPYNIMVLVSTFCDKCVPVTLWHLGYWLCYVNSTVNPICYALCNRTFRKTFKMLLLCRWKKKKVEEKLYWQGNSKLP
REPORTED ENDPOINT: Ki

INPUT: Hello, please tell me recorded Ki for this one: C[C@@H]1CN(c2ccc(C#N)c(C(F)(F)F)c2)CCN1C(=O)NCCC1CCN(Cc2ccccc2)CC1 [22-31]
OUTPUT: 0.1 to 1 µM

* * *

Molecular target: UniProt P08173
Assay: Radioligand (tritiated N-methylscopolamine) binding assay, M4
Conditions: Ki against the M4 receptor; membranes from CHO cells expressing human M4; tritiated N-methylscopolamine 1.5 nM; read-out: Ki
Experimental: Binding affinity (Ki) of compounds was measured by inhibition of radioligand binding to membranes from CHO cells expressing human M1, M2, M3, M4 and M5 receptors. […] Harvesting and radioactivity counting was conducted as previously described (see, e.g., Hoare et al., Mol. Pharmacol. 2003 63(3):751-65); Erratum at Mol. Pharmacol. 2005 July; 68(1): 260).
REPORTED ENDPOINT: Ki

INPUT: GET Ki where system = UniProt P08173 and item = C[C@@H]1CN(c2cnc(C(F)(F)F)nc2)C[C@H](C)N1C(=O)NCCC1CCN(Cc2ccc(F)cc2)CC1 [6-55]
OUTPUT: 10 to 100 nM

INPUT: GET Ki where system = UniProt P08173 and item = O=C(NC1CCN(c2ccc(OC(F)(F)F)cc2)CC1)OCCC1CCN(Cc2ccccc2)CC1 [12-11]
OUTPUT: 10 to 100 nM

INPUT: GET Ki where system = UniProt P08173 and item = O=C(NCCC1CCN(Cc2ccccc2)CC1)N1CCC(O)(c2cccc(C(F)(F)F)c2)CC1 [8-19]
OUTPUT: 10 to 100 nM

INPUT: GET Ki where system = UniProt P08173 and item = C[C@@H]1CN(c2ccc(OC(F)(F)F)cc2F)CCN1C(=O)NCCC1CCN(Cc2ccccc2)CC1 [10-12]
OUTPUT: < 10 nM

INPUT: GET Ki where system = UniProt P08173 and item = C[C@@H]1CN(c2cc(F)c(F)c(F)c2)CCN1C(=O)NCCC1CCN(Cc2ccc3[nH]ccc3c2)CC1 [6-1]
OUTPUT: < 10 nM

INPUT: GET Ki where system = UniProt P08173 and item = O=C(NCCC1CCN(Cc2cccc(F)c2)CC1)c1ccc(OCc2ccccc2)cc1 [11-24]
OUTPUT: 100 to 1000 nM

INPUT: GET Ki where system = UniProt P08173 and item = C[C@H]1CN(c2ncc(C(F)(F)F)cc2F)CCC1C(=O)NCCC1CCN(Cc2ccccc2)CC1 (some centres unmarked) [10-81]
OUTPUT: < 10 nM

INPUT: GET Ki where system = UniProt P08173 and item = O=C(NCCC1CCN(Cc2ccccc2)CC1)[C@@H]1CCN(c2ccc(OC(F)(F)F)cc2)C1 [10-72]
OUTPUT: 100 to 1000 nM
